Target: B1R receptor of the rat (rB1R) (Rattus norvegicus)
Construct: expressed in transfected cells; host or cells: CHO K1 cells
Sequence (P97583 1-337): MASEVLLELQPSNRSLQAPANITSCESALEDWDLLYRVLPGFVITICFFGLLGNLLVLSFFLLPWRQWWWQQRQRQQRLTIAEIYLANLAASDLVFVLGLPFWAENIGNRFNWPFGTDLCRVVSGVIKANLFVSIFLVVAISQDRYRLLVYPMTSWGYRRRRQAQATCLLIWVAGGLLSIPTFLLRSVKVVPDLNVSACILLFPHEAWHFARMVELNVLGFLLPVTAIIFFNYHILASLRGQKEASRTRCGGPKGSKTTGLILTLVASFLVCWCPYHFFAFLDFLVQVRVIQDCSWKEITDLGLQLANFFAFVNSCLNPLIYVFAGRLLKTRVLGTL
Test: Functional investigation on the bradykinin 1 receptor (B1R), FLIPR Ca2+ assay, rB1R cells
Format: cell-based
Settings: CHO-K1, 10 μM test substance; CHO K1 cells with rat B1R; agonist Des-Arg9 bradykinin; % of maximum achievable inhibition; read-out: B1R antagonism, rat [10 μM] % inhibition
Procedure: The indication in % activation is based on the Ca^2+ signal after addition of Lys-Des-[…] bradykinin (0.5 nM) or Des-[…] bradykinin (100 nM). Antagonists lead to a suppression of the Ca^2+ influx following administration of the agonist. […] According to this assay, the Ca^2+ inflow through the channel is quantified with the aid of a Ca^2+-sensitive dye (Fluo-4 type, Molecular Probes Europe BV, Leiden, Netherlands) in a fluorescent imaging plate reader (FLIPR, Molecular Devices, Sunnyvale, USA). […]
Entries and their measured inhibition at 10 µM follow.
Hi! Could you send only the number? It should be in %, unit omitted.

Consider the reported inhibition at 10 µM for these molecules:
                                   molecule       endpoint_label  obs_value
0  COc1cc(C)c(S(=O)(=O)Nc2cccc3ccn(CCC(=O)N4CCC(CCN5CCCC5)CC4)c23)c(C)c1 [G_CC-41]  inhibition at 10 µM         76
1  Cc1cc(S(=O)(=O)Nc2cccc3ccn(CCC(=O)N4CCN(CC5CCN(C)CC5)CC4)c23)c(C)cc1Cl [G_CC-62]  inhibition at 10 µM         99
2  COc1cc(C)c(S(=O)(=O)Nc2cccc3ccn(CC(=O)N4CCC5(CCC(N6CCC6)CC5)CC4)c23)c(C)c1 [Compound G-18]  inhibition at 10 µM         99
3  COc1cc(C)c(S(=O)(=O)Nc2cccc3ccn(CCC(=O)NCCC4CCN(c5ccncc5)CC4)c23)c(C)c1 [G_CC-47]  inhibition at 10 µM        102
4  COc1cc(C)c(S(=O)(=O)Nc2ccc3ccn(CC(=O)N(C)CCCN4CCN(c5ccncc5)CC4)c3c2)c(C)c1 [G_CC-76]  inhibition at 10 µM        104
5  Cc1cc(S(=O)(=O)Nc2cccc3ccn(CCC(=O)NCCC4CCN(c5ccncc5)CC4)c23)c(C)cc1Cl [G_CC-70]  inhibition at 10 µM        100

Here is the next item to consider.
Measured inhibition at 10 µM for this entry Cc1cc(S(=O)(=O)Nc2cccc3ccn(CCC(=O)N4CCN(C5CCN(C)CC5)CC4)c23)c(C)cc1Cl [G_CC-59] on B1R receptor of the rat (rB1R) (Rattus norvegicus): 87
